# System under test: DNA (cytosine-5)-methyltransferase 1 (Homo sapiens) (UniProt P26358)
# Sequence (P26358 whole entry): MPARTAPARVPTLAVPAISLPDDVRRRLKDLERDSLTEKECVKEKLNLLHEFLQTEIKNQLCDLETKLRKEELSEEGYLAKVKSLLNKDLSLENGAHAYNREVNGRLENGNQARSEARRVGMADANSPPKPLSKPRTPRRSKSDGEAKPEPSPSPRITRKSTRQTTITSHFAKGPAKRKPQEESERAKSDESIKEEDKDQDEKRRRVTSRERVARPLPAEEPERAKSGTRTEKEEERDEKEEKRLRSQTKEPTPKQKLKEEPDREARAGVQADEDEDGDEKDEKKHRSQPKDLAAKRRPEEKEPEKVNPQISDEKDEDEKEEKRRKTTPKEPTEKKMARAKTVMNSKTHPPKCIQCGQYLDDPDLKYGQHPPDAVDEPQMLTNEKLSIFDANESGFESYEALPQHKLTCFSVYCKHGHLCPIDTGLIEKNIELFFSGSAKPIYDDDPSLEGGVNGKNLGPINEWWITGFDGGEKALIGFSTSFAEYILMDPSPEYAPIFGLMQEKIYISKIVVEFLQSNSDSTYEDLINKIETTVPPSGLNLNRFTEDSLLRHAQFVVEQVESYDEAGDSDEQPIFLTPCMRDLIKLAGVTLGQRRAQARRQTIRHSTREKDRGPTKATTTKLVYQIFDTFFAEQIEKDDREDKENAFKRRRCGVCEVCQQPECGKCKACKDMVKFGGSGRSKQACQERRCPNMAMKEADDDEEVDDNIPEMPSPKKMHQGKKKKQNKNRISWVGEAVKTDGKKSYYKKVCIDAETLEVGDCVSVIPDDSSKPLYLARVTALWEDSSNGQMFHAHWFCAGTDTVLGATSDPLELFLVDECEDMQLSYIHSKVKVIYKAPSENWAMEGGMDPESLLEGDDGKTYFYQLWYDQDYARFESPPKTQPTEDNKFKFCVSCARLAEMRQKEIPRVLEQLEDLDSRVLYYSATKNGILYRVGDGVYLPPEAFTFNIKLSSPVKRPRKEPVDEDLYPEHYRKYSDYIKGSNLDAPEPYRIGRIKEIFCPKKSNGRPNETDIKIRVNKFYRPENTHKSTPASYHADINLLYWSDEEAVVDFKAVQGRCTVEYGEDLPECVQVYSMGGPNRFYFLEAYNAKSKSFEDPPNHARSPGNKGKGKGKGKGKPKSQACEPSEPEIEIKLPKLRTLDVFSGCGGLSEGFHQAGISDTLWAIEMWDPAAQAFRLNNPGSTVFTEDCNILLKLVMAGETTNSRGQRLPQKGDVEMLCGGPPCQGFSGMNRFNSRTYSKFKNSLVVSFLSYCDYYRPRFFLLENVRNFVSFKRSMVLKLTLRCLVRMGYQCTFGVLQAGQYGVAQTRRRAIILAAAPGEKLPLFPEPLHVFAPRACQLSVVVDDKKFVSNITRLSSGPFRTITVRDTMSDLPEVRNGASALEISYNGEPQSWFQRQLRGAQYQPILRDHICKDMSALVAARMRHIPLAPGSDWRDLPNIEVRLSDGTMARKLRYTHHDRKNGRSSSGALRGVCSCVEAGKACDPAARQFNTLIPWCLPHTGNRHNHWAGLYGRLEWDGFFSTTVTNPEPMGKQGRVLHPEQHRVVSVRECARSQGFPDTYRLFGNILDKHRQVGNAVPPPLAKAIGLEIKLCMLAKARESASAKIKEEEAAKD
# Assay notes: Inhibition of DNMT1 in human NCI-H292 cells at 50 uM after 48 hrs by Western blot analysis relative to control
# Type: cell-based
Experimental endpoint: fold change (FC)

Solved cases below.
Smiles code	Observed value
Cc1ccc(N2C(=O)N/C(=C\c3ccc(O)cc3)C2=O)cc1	0.32
O=C(NCc1ccccc1)c1cccc(N2C(=O)N/C(=C\c3ccc(O)cc3)C2=O)c1	0.27
COc1ccc(/C=C2\NC(=O)N(c3ccc(Cl)cc3)C2=O)cc1	1.19

(P) O=C1N/C(=C\c2ccc(Cl)cc2)C(=O)N1c1ccc(Cl)cc1
(Q) O=C1N/C(=C\c2ccc(O)cc2)C(=O)N1c1ccc(I)cc1
(R) O=C(NCC1CCCCC1)c1cccc(N2C(=O)N/C(=C\c3ccc(O)cc3)C2=O)c1
Problem: // ranking: key=fold change (FC), reverse=True Use the labels to give the ranking in the order requested.
Solution: P, R, Q
(P: 0.99, R: 0.25, Q: 0.01)
